# testSystem: human CA-IX (Homo sapiens, UniProt Q16790)
# Construct: purchased Acro CA9-H82E3
# methodNotes: Surface Plasmon Resonance (SPR) binding kinetics to recombinant human CA-IX (Biacore 8K, single-cycle kinetics, 1:1 binding model)
# conditionContext: Chelated Metal: Lu-175; SPR, 25° C., pH 7.4; read-out: CAIX KD
pKd: −log10 of the molar value.
readoutType: pKd

{"mol": "CC(CCCC(=O)N1CCC2(CC2)C[C@H]1C(=O)N[C@@H](CC(=O)N1CCN(C(=O)CN2CCN(CC(=O)O)CCN(CC(=O)O)CCN(CC(=O)O)CC2)C[C@@H]1C(=O)NCCn1cc(C23CC(C(=O)Nc4nnc(S(N)(=O)=O)s4)(C2)C3)nn1)C(=O)O)(c1ccc(O)cc1)c1ccc(O)cc1.[Lu+3]", "result": "> 9.00"}
{"mol": "NS(=O)(=O)c1nnc(NC(=O)C23CC(c4cn(CCNC(=O)[C@@H]5CN(C(=O)CN6CCN(CC(=O)O)CCN(CC(=O)O)CCN(CC(=O)O)CC6)CCN5C(=O)C[C@H](Nc5ncc(C(=O)NCCc6ccc(F)c(F)c6)cn5)C(=O)O)nn4)(C2)C3)s1.[Lu+3]", "result": "8.00 to 8.60"}
{"mol": "NS(=O)(=O)c1nnc(NC(=O)C23CC(c4cn(CCNC(=O)[C@@H]5CN(C(=O)CN6CCN(CC(=O)O)CCN(CC(=O)O)CCN(CC(=O)O)CC6)CCN5C(=O)CNC(=O)C5(C(=O)O)CCN(C(=O)CCc6n[nH]c7ccccc67)CC5)nn4)(C2)C3)s1.[Lu+3]", "result": "8.00 to 8.60"}
{"mol": "CC(CCC(=O)N[C@@H](CC(=O)N[C@@H](CC(=O)N[C@@H](CCCCn1cc(C23CCC(C(=O)Nc4nnc(S(N)(=O)=O)s4)(CC2)C3)nn1)C(=O)NCCOCCOCCNC(=O)CN1CCN(CC(=O)O)CCN(CC(=O)O)CCN(CC(=O)O)CC1)C(=O)O)C(=O)O)(c1ccc(O)cc1)c1ccc(O)cc1.[Lu+3]", "result": "> 9.00"}
{"mol": "N[C@@H](CC(=O)N[C@@H](CCC(=O)N1CCN(C(=O)CN2CCN(CC(=O)O)CCN(CC(=O)O)CCN(CC(=O)O)CC2)C[C@H]1C(=O)NCCn1cc(C23CCC(C(=O)Nc4nnc(S(N)(=O)=O)s4)(CC2)CC3)nn1)C(=O)O)C(=O)O.[Lu+3]", "result": "> 9.00"}
{"mol": "CCCCNc1c(F)c(S(N)(=O)=O)c(F)c(F)c1S(=O)(=O)CCOCc1cn(CCNC(=O)[C@H]2CN(C(=O)CN3CCN(CC(=O)O)CCN(CC(=O)O)CCN(CC(=O)O)CC3)CCN2C(=O)C[C@H](NC(=O)[C@@H]2COCCN2C(=O)CCCc2ccc(O)cc2)C(=O)O)nn1.[Lu+3]", "result": "8.00 to 8.60"}
{"mol": "NS(=O)(=O)c1nnc(NC(=O)C23CC(c4cn(CCNC(=O)[C@@H]5CN(C(=O)CN6CCN(CC(=O)O)CCN(CC(=O)O)CCN(CC(=O)O)CC6)CCN5C(=O)C[C@H](Nc5ncc(C(=O)NCCc6ccc(C(F)(F)F)cc6)cn5)C(=O)O)nn4)(C2)C3)s1.[Lu+3]", "result": "8.00 to 8.60"}

====

# testSystem: human CA-IX (Homo sapiens, UniProt Q16790)
# Construct: purchased Acro CA9-H82E3
# methodNotes: Surface Plasmon Resonance (SPR) binding kinetics to recombinant human CA-IX (Biacore 8K, single-cycle kinetics, 1:1 binding model)
# conditionContext: Chelated Metal: Lu-175; SPR, 25° C., pH 7.4; read-out: CAIX KD
pKd: −log10 of the molar value.

{"mol": "CC(CCC(=O)N1CCOC[C@@H]1C(=O)N[C@@H](CC(=O)N1CCN(C(=O)CN2CCN(CC(=O)O)CCN(CC(=O)O)CCN(CC(=O)O)CC2)C[C@@H]1C(=O)NCCn1cc(C23CC(C(=O)Nc4nnc(S(N)(=O)=O)s4)(C2)C3)nn1)C(=O)O)(c1ccc(O)cc1)c1ccc(O)cc1.[Lu+3]", "pKd": "8.60 to 9.00"}
{"mol": "NS(=O)(=O)c1nnc(NC(=O)C23CC(c4cn(CCNC(=O)[C@@H]5CN(C(=O)CN6CCN(CC(=O)O)CCN(CC(=O)O)CCN(CC(=O)O)CC6)CCN5C(=O)CNC(=O)C5(C(=O)O)CCN(C(=O)CCCCc6ccc(I)cc6)CC5)nn4)(C2)C3)s1.[Lu+3]", "pKd": "> 9.00"}

====

# testSystem: human CA-XII (Homo sapiens)
# Construct: purchased Creative BioMart CA12-261H
# Sequence (O43570 25-354): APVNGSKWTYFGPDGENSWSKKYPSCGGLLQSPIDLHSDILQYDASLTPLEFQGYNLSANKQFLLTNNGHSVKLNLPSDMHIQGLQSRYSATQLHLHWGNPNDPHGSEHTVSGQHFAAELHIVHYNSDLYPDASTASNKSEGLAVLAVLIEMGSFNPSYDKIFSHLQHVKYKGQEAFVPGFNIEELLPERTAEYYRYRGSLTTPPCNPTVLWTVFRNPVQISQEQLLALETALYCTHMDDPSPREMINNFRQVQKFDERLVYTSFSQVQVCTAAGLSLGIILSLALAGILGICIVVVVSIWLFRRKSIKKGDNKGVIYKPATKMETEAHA
# methodNotes: Surface Plasmon Resonance (SPR) binding kinetics to recombinant human CA-XII (Biacore 8K, single-cycle kinetics, 1:1 binding model)
# conditionContext: Chelated Metal: Lu-175, 25° C., pH 7.4, read-out: CAXII KD
pKd: −log10 of the molar value.
Collected pKd values appear next to each entry.

{"compound": "CC(CCC(=O)N[C@@H](CC(=O)N[C@@H](CC(=O)N[C@@H](CCCCn1cc(C23CCC(C(=O)Nc4nnc(S(N)(=O)=O)s4)(CC2)C3)nn1)C(=O)NCCOCCNC(=O)CCC(C(=O)O)N1CCN(CC(=O)O)CCN(CC(=O)O)CCN(CC(=O)O)CC1)C(=O)O)C(=O)O)(c1ccc(O)cc1)c1ccc(O)cc1.[Lu+3] (stereo partly shown) [Compound 100.15]", "pKd": "> 9.00"}
{"compound": "CC(CCC(=O)N[C@@H](CCC(=O)N1CCN(C(=O)CN2CCN(CC(=O)O)CCN(CC(=O)O)CCN(CC(=O)O)CC2)C[C@@H]1C(=O)NCCn1cc(C23CC(C(=O)Nc4nnc(S(N)(=O)=O)s4)(C2)C3)nn1)C(=O)O)(c1ccc(O)cc1)c1ccc(O)cc1.[Lu+3] [Compound 107.11]", "pKd": "< 8.00"}
{"compound": "CC(CCC(=O)N[C@@H](CC(=O)N[C@@H](CC(=O)N[C@@H](CCCn1cc(C23CCC(C(=O)Nc4nnc(S(N)(=O)=O)s4)(CC2)C3)nn1)C(=O)NCCOCCOCCNC(=O)CN1CCN(CC(=O)O)CCN(CC(=O)O)CCN(CC(=O)O)CC1)C(=O)O)C(=O)O)(c1ccc(O)cc1)c1ccc(O)cc1.[Lu+3] [Compound 100.5]", "pKd": "> 9.00"}
{"compound": "CC[C@H]1CN(CC(=O)O)[C@@H](CC)CN(CC(=O)N2CCN(C(=O)CNC(=O)C3(C(N)=O)CCN(C(=O)CCCC(C)(c4ccc(O)cc4)c4ccc(O)cc4)CC3)[C@H](C(=O)NCCn3cc(C45CC(C(=O)Nc6nnc(S(N)(=O)=O)s6)(C4)C5)nn3)C2)[C@@H](CC)CN(CC(=O)O)[C@@H](CC)CN1CC(=O)O.[Lu+3] [Compound 128.1]", "pKd": "< 8.00"}
{"compound": "CC(CCC(=O)N[C@@H](CC(=O)N[C@@H](CC(=O)N1CCN(C(=O)CN2CCN(CC(=O)O)CCN(CC(=O)O)CCN(CC(=O)O)CC2)C[C@H]1C(=O)NCCn1cc(-c2ccc(-c3cn4nc(S(N)(=O)=O)sc4n3)cc2)nn1)C(=O)O)C(=O)O)(c1ccc(O)cc1)c1ccc(O)cc1.[Lu+3] [Compound 107.28]", "pKd": "> 9.00"}
{"compound": "NS(=O)(=O)c1nnc(NC(=O)C23CC(c4cn(CCNC(=O)[C@@H]5CN(C(=O)CN6CCN(CC(=O)O)CCN(CC(=O)O)CCN(CC(=O)O)CC6)CCN5C(=O)CNC(=O)C5(C(=O)O)CCN(C(=O)Cc6ccc(C7CC7)cc6)CC5)nn4)(C2)C3)s1.[Lu+3] [Compound 112.12]", "pKd": "< 8.00"}
{"compound": "CC(CCC(=O)N[C@@H](CC(=O)N[C@@H](CC(=O)N1CCN(C(=O)CN2CCN(CC(=O)O)CCN(CC(=O)O)CCN(CC(=O)O)CC2)C[C@H]1C(=O)NCCn1cc(C23CC(C(=O)Nc4nnc(S(N)(=O)=O)s4)(C2)C3)nn1)C(N)=O)C(N)=O)(c1ccc(O)cc1)c1ccc(O)cc1.[Lu+3] [Compound 107.47]", "pKd": "< 8.00"}
{"compound": "CC(CCC(=O)N1CCC[C@@H]1C(=O)N[C@@H](CC(=O)N1CCN(C(=O)CN2CCN(CC(=O)O)CCN(CC(=O)O)CCN(CC(=O)O)CC2)C[C@@H]1C(=O)NCCn1cc(C23CC(C(=O)Nc4nnc(S(N)(=O)=O)s4)(C2)C3)nn1)C(=O)O)(c1ccc(O)cc1)c1ccc(O)cc1.[Lu+3] [Compound 108.5]", "pKd": "< 8.00"}
{"compound": "NS(=O)(=O)c1nnc(NC(=O)C23CC(c4cn(CCNC(=O)[C@@H]5CN(C(=O)CN6CCN(CC(=O)O)CCN(CC(=O)O)CCN(CC(=O)O)CC6)CCN5C(=O)C[C@H](Nc5ncc(C(=O)NCC6CC7(CCC7)C6)cn5)C(=O)O)nn4)(C2)C3)s1.[Lu+3] [Compound 111.9]", "pKd": "< 8.00"}
{"compound": "CC(CCC(=O)N[C@@H](CC(=O)N[C@@H](CC(=O)N1CCN(C(=O)CN2CCN(CC(=O)O)CCN(CC(=O)O)CCN(CC(=O)O)CC2)CC1C(=O)NCCn1cc(C23CCC(C(=O)Nc4nnc(S(N)(=O)=O)s4)(CC2)C3)nn1)C(=O)O)C(=O)O)(c1ccc(O)cc1)c1ccc(O)cc1.[Lu+3] (stereo partly shown) [Compound 107.1]", "pKd": "> 9.00"}
{"compound": "CC(CC(=O)N1CCC(C(=O)O)(C(=O)NCC(=O)N[C@@H](CCCCn2cc(CCCC(=O)Nc3nnc(S(N)(=O)=O)s3)nn2)C(=O)NCCOCCOCCNC(=O)CN2CCN(CC(=O)O)CCN(CC(=O)O)CCN(CC(=O)O)CC2)CC1)(c1ccc(O)cc1)c1ccc(O)cc1.[Lu+3] [Compound 102.4]", "pKd": "8.00 to 8.60"}
{"compound": "NS(=O)(=O)c1nnc(NC(=O)C23CC(c4cn(CCNC(=O)[C@H]5CNCCN5C(=O)[C@H](CCCCNC(=O)CN5CCN(CC(=O)O)CCN(CC(=O)O)CCN(CC(=O)O)CC5)NC(=O)CC[C@H](NC(=O)c5n[nH]c6ccccc56)C(=O)O)nn4)(C2)C3)s1.[Lu+3] [Compound 118.3]", "pKd": "8.00 to 8.60"}
{"compound": "CC(CCCC(=O)N1CCC(C(N)=O)(C(=O)NCC(=O)N2CCN(C(=O)CN3CCN(CC(=O)O)CCN(CC(=O)O)CCN(CC(=O)O)CC3)C[C@H]2C(=O)NCCn2cc(C34CC(C(=O)Nc5nnc(S(N)(=O)=O)s5)(C3)C4)nn2)CC1)(c1ccc(O)cc1)c1ccc(O)cc1.[Lu+3] [Compound 107]", "pKd": "< 8.00"}

Sourced from patent US20260325685A1
